Attribution: patent US20230414780A1

Each entry below lists one item and its recorded Kd value.
Target: T1, rhesus monkey TfR ectodomain fused to a mouse IgG1 Fc fragment (rhesus monkey, UniProt I0FKY7 89-760)
T1 construct: extracellular domain; not shown: mouse IgG1 Fc fragment
Experiment: SPR, kinetic
Experimental: Binding properties of some VHHs were also evaluated using Surface Plasmon Resonance (SPR) experiments. The human, mouse and rhesus monkey TfR (having respectively GeneBank number NM_003234.2, NM_011638, NC_041755.1) ectodomains were fused to the N-terminal end of a mouse IgG1 Fc fragment and the recombinant proteins were produced and purified in-house. Interaction of VHHs with the receptors was tested using a Biacore T200 (GE Healthcare). […]
Expressed in nM, but write only the number.

binder	Kd [nM]
B8^V33 (VHH) VHH: EVQLVESGGGVVQPGGSLRLSCAASGEIFSINFMRWYRQAPGKQREWVAGFTRDGSTNYPDSAKGRFTISRDNAKNTVYLQIDSLKPEDTAVYYCYMLKTWGQGTQVTVSS	73.4
B8^V39 (VHH) VHH: EVQLVESGGGVVQPGGSLRLSCAASGEIFKINFMRWYRQAPGKQREWVAGFTRDGSTNYPDSAKGRFTISRDNAKNTVYLQIDSLKPEDTAVYYCYMLDTWGQGTQVTVSS	90.5
B8^V37 (VHH) VHH: EVQLVESGGGVVQPGGSLRLSCAASGEIFSINFMRWYRQAPGKQREWVAGFTRDGSTNYPDSAKGRFTISEDNAKNTVYLQIDSLKPEDTAVYYCYMLRTWGQGTQVTVSS	148

Okay, now this binder:
Query string: Return value of Kd for input C5^V27 (VHH) VHH: EVQLVESGGGVVQPGGSLKLSCVASGADFSINYIRWYRQAPGKQREFVAGFTATGNTNYADSMKGRFTISRDNTKNAVYLQIDSLKPEDTAVYYCYMLDKWGQGTQVTVSS , no commentary.
Result string: 83.9
